Attribution: ChEMBL document CHEMBL3112490

Catalogue of compounds with associated IC50
target: Cholinesterase (Equus caballus, UniProt P81908); assay: Inhibition of equine serum BChE using S-butyrylthiocholine chloride as substrate preincubated for 15 mins followed by substrate addition by Ellman's method
Sequence (P81908 whole entry): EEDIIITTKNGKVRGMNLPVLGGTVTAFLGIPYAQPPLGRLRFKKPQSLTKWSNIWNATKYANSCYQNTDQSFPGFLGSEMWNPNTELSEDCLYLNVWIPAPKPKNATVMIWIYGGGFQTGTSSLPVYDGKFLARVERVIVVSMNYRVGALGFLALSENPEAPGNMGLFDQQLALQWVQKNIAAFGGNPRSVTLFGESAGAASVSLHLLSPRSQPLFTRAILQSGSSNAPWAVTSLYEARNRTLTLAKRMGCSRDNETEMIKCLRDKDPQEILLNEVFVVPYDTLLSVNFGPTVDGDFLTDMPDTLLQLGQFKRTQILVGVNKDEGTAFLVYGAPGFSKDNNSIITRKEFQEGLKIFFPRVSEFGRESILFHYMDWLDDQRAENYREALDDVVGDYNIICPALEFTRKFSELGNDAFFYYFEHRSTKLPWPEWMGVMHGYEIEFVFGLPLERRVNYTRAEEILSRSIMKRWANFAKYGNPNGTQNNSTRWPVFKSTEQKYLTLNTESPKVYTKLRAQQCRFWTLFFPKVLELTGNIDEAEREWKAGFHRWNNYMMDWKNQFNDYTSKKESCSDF
Answer format reminder: number followed by unit.

Please provide the recorded IC50 for C=CC(=O)N1C/C(=C\c2ccc(F)cc2)C(=O)[C@@]2(C1)[C@H](c1ccc(F)cc1)CN(C)[C@]21C(=O)Nc2ccccc21 (racemic) , tested on Cholinesterase (Equus caballus, UniProt P81908).
3.39 µM

What about this compound? Cc1ccc(/C=C2\CN(C(=O)[C@@H]3CCN(C)[C@]34C(=O)Nc3ccccc34)C[C@]3(C2=O)[C@H](c2ccc(C)cc2)CN(C)[C@]32C(=O)Nc3ccccc32)cc1 (racemic)
11.3 µM

Further, for C=CC(=O)N1C/C(=C\c2ccc(Cl)cc2Cl)C(=O)[C@@]2(C1)[C@H](c1ccc(Cl)cc1Cl)CN(C)[C@]21C(=O)Nc2ccccc21 (racemic) ?
5.32 µM

Request: CN1CC[C@@H](C(=O)N2C/C(=C\c3ccccc3Cl)C(=O)[C@@]3(C2)[C@H](c2ccccc2Cl)CN(C)[C@]32C(=O)Nc3ccccc32)[C@@]12C(=O)Nc1ccccc12 (racemic)
9.38 µM

Likewise for C=CC(=O)N1C/C(=C\c2ccccc2F)C(=O)[C@@]2(C1)[C@H](c1ccccc1F)CN(C)[C@]21C(=O)Nc2ccccc21 (racemic) ?
3.21 µM

Let us now turn to CN1CC[C@@H](C(=O)N2C/C(=C\c3ccccc3)C(=O)[C@@]3(C2)[C@H](c2ccccc2)CN(C)[C@]32C(=O)Nc3ccccc32)[C@@]12C(=O)Nc1ccccc12 (racemic)
9.34 µM

====

target: Acetylcholinesterase (Homo sapiens, UniProt P22303)
Sequence (P22303 whole entry): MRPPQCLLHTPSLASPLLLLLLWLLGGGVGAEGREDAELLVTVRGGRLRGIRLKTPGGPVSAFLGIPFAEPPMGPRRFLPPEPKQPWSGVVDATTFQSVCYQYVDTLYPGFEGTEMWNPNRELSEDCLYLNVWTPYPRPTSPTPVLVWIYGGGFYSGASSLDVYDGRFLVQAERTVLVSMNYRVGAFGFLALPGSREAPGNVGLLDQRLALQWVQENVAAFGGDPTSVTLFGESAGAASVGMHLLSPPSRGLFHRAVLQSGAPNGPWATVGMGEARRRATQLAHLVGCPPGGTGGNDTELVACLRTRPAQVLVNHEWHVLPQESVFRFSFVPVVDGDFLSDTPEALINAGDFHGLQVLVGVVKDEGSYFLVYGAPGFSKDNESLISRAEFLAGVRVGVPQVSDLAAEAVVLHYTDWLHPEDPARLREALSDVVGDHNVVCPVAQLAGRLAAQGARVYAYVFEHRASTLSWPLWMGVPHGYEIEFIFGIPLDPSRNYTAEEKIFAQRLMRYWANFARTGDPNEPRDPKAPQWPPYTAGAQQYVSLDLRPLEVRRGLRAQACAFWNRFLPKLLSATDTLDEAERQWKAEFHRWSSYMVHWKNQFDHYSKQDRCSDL
attribute_measured: pIC50
In textbook form, pIC50 equals minus log to base ten of the concentration in mol/L.

Example entries and their recorded answers appear below.
- molecule: "C=CC(=O)N1C/C(=C\\c2ccc(C)cc2)C(=O)[C@@]2(C1)[C@H](c1ccc(C)cc1)CN(C)[C@]21C(=O)Nc2ccccc21 (racemic)"
  pIC50: 5.13
- molecule: "CN1CC[C@@H](C(=O)N2C/C(=C\\c3ccc(F)cc3)C(=O)[C@@]3(C2)[C@H](c2ccc(F)cc2)CN(C)[C@]32C(=O)Nc3ccccc32)[C@@]12C(=O)Nc1ccccc12 (racemic)"
  pIC50: 5.63

From here, focus on the item given below.
Please give the measured pIC50 for this molecule: CN1CC[C@@H](C(=O)N2C/C(=C\c3ccc(Cl)cc3Cl)C(=O)[C@@]3(C2)[C@H](c2ccc(Cl)cc2Cl)CN(C)[C@]32C(=O)Nc3ccccc32)[C@@]12C(=O)Nc1ccccc12 (racemic)
5.35

====

assay: Selectivity ratio of IC50 for equine serum BChE to IC50 for AChE (unknown origin)
Mark Condition met only for Ratio IC50 values smaller than 0.9; exact matches and larger values are Condition not met.

See these solved cases before continuing.
- compound: "COc1ccccc1/C=C1\\CN(C(=O)[C@@H]2CCN(C)[C@]23C(=O)Nc2ccccc23)C[C@]2(C1=O)[C@H](c1ccccc1OC)CN(C)[C@]21C(=O)Nc2ccccc21 (racemic)"
  label_class: "Condition not met"
- compound: "C=CC(=O)N1C/C(=C\\c2ccccc2)C(=O)[C@@]2(C1)[C@H](c1ccccc1)CN(C)[C@]21C(=O)Nc2ccccc21 (racemic)"
  label_class: "Condition met"
- compound: "C=CC(=O)N1C/C(=C\\c2cccc([N+](=O)[O-])c2)C(=O)[C@@]2(C1)[C@H](c1cccc([N+](=O)[O-])c1)CN(C)[C@]21C(=O)Nc2ccccc21 (racemic)"
  label_class: "Condition not met"
- compound: "C=CC(=O)N1C/C(=C\\c2ccccc2Cl)C(=O)[C@@]2(C1)[C@H](c1ccccc1Cl)CN(C)[C@]21C(=O)Nc2ccccc21 (racemic)"
  label_class: "Condition met"

A record lists CN1CC[C@@H](C(=O)N2C/C(=C\c3ccccc3F)C(=O)[C@@]3(C2)[C@H](c2ccccc2F)CN(C)[C@]32C(=O)Nc3ccccc32)[C@@]12C(=O)Nc1ccccc12 (racemic) . Is its Ratio IC50 below 0.9?
Condition not met

Please give the result for C=CC(=O)N1C/C(=C\c2ccccc2F)C(=O)[C@@]2(C1)[C@H](c1ccccc1F)CN(C)[C@]21C(=O)Nc2ccccc21 (racemic) too.
Condition met
